Would you kindly list EC50 for each of these molecules?
# target-entity: mouse TGR5 (Mus musculus)
# Sequence (Q80SS6 whole entry): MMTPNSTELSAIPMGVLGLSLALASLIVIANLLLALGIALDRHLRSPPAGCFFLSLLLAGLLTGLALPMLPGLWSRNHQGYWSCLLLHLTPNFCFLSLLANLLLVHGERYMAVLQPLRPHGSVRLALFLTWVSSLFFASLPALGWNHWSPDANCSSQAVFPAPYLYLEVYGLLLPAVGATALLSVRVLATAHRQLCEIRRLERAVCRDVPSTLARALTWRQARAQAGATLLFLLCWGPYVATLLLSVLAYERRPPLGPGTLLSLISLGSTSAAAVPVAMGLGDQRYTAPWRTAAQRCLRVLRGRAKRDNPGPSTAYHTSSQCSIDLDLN
# method-summary: cAMP HTRF TGR5 agonism assay in HEK293T cells expressing mouse TGR5
Give bare numbers, in nM.

INSERT INTO measurements (molecule, number) VALUES
  ('O=C(c1nccnc1Oc1cc(Cl)ccc1Cl)N1CCN(C2CC2)c2ccccc21 [18k]', 267),
  ('O=C(c1nccnc1Oc1ccccc1Cl)N1CCN(C2CC2)c2ccccc21 [18g]', 120);

Field: next molecule
input: GET /values?readout=EC50&item= O=C(c1nccnc1Oc1ccc(Cl)cc1Cl)N1CCN(C2CC2)c2ccccc21 [18j]
output: 538

====

# target-entity: UniProt:Q8TDU6
# method-summary: cAMP HTRF TGR5 agonism assay in HEK293T cells expressing human TGR5
Would you kindly list EC50 for each of these compounds?
Numbers only, in nM.

INSERT INTO assay_data (compound, target_entity, measured_property, measure_unit, number) VALUES
  ('O=C(c1nccnc1Oc1ccc(-c2ccccc2)cc1)N1CCN(C2CC2)c2ccccc21 [18l]', 'UniProt:Q8TDU6', 'EC50', 'nM', 895),
  ('O=C(c1nccnc1Oc1ccc(Cl)cc1Cl)N1CCN(C2CC2)c2ccccc21 [18j]', 'UniProt:Q8TDU6', 'EC50', 'nM', 9.89),
  ('O=C(c1nccnc1Oc1ccc(Cl)cc1)N1CCN(C2CC2)c2ccccc21 [18d]', 'UniProt:Q8TDU6', 'EC50', 'nM', 1500),
  ('O=C(c1nccnc1Oc1ccccc1Cl)N1CCN(C2CC2)c2ccccc21 [18g]', 'UniProt:Q8TDU6', 'EC50', 'nM', 1.44),
  ('O=C(c1nccnc1Oc1cc(Cl)ccc1Cl)N1CCN(C2CC2)c2ccccc21 [18k]', 'UniProt:Q8TDU6', 'EC50', 'nM', 0.58);

Parameter requested: EC50. Apply to each item below.
1. COc1ccc(Oc2nccnc2C(=O)N2CCN(C3CC3)c3ccccc32)cc1 [18h]
2. Cc1ccc(Oc2nccnc2C(=O)N2CCN(C3CC3)c3ccccc32)cc1 [18i]
3. O=C(c1nccnc1Oc1ccc(F)cc1)N1CCN(C2CC2)c2ccccc21 [18e]
4. O=C(c1nccnc1Oc1ccccc1F)N1CCN(C2CC2)c2ccccc21 [18f]

output:
196
83.2
442
36.7

====

# method-summary: In vitro human plasma stability assay
# Format: in vitro ADME
measured-property: remaining at 0.5 h (%)
Numbers only, in %.

input: GET /values?readout=remaining at 0.5 h&item= O=C(c1nccnc1Oc1cc(Cl)ccc1Cl)N1CCN(C2CC2)c2ccccc21 [18k]
output: 104

====

Would you kindly list pEC50 for each of these compounds?
# target-entity: human TGR5 (Homo sapiens)
# Sequence (Q8TDU6 whole entry): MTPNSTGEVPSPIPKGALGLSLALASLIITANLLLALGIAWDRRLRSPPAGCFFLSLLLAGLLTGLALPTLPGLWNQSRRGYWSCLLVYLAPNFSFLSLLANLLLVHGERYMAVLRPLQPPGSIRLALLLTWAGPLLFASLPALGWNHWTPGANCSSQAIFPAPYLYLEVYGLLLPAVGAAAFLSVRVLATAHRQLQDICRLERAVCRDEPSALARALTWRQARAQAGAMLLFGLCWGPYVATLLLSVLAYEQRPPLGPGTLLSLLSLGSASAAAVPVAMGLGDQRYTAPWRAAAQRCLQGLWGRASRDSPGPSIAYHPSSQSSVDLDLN
# method-summary: cAMP HTRF TGR5 agonism assay in HEK293T cells expressing human TGR5
pEC50: −log10 of the molar value.

Parameter requested: pEC50. Apply to each item below.
1. O=C(c1nccnc1Oc1cc(Cl)ccc1Cl)N1CCN(c2ccccc2F)CC1 [18o]
2. O=C(C1Cc2ccccc2CN1Cc1ccc(Cl)cc1)N1CCN(C2CC2)c2ccccc21 (stereo not drawn) [18a]
3. CN(C(=O)c1nccnc1Oc1cc(Cl)ccc1Cl)c1ccc(F)cc1 [18r]
4. O=C(c1cc2sccc2n1Cc1ccc(Cl)cc1)N1CCN(C2CC2)c2ccccc21 [18c]

output:
< 5.00
< 4.52
< 5.00
< 4.52

Parameter requested: pEC50. Apply to each item below.
1. O=C(c1nccnc1Oc1cc(Cl)ccc1Cl)N1CCOc2ccccc21 [18u]
2. O=C(c1cc2ccccc2n1Cc1ccc(Cl)cc1)N1CCN(C2CC2)c2ccccc21 [18b]

output:
1. < 5.00
2. < 4.52
